In this section, each of the compounds is paired with its reported pEC50.
Test system: S49
assay summary: Cytotoxicity against HGPRTase-deficient mouse S49 cells assessed as growth inhibition after 72 hrs by trypan blue exclusion assay
Format: functional, cell-based
assay context: S49, 72 h
Entry type: numeric. Quantity: pEC50, the -log10 of concentration in molar units.

Q) May I ask what pEC50 has been recorded for "CCCCCCCCCCCCCCCC(=O)O[C@@H]1[C@@H]2OP(=O)(O)OC[C@H]2O[C@H]1n1cnc2c(=S)[nH]cnc21" ?
A) 4.19

Q) May I ask what pEC50 has been recorded for CCCCCCCCCCCCCCCC(=O)O [PALMITIC ACID] ?
A) 3.30

Below: the item to evaluate.
Q) May I ask what pEC50 has been recorded for "CCCCCCCCCCCCCCCCCCCCCC(=O)O[C@@H]1[C@@H]2OP(=O)(O)OC[C@H]2O[C@H]1n1cnc2c(=S)[nH]cnc21" ?
A) 3.92
